Values from the supplement of paper PMC12494721

Test system: Escherichia coli IAI1
MEASUREMENT_DESCRIPTION: fold change of Cadaverine concentration vs plate DMSO controls (fold change (ratio)); higher = more amine produced, active = hit call of the paper (significant change in both replicates, either direction)
CONDITION_SET: 20 µM; incubation time: 27 h, anaerobic, 37 °C
Structures can show the parent of a compound that is named as a salt.
Quick rule: fold change of Cadaverine concentration of at least 1 means True, below that means False.

Examples from the recorded data:
1. COc1ccc(C(CN(C)C)C2(O)CCCCC2)cc1 (centres undefined): False
2. C[N+](C)(C)CCCl: False
3. CN1[C@@H]2CC[C@H]1C[C@@H](OC(=O)[C@H](CO)c1ccccc1)C2: False
4. CCOCn1c(-c2ccc(Cl)cc2)c(C#N)c(Br)c1C(F)(F)F: True

I'd appreciate it if you could say whether Fc1ccc([C@]2(Cn3cncn3)O[C@H]2c2ccccc2Cl)cc1 (racemic) has fold change of Cadaverine concentration at least equal to 1.
True

I'd appreciate it if you could say whether COc1ccc(C(=CC(=O)N2CCOCC2)c2ccc(Cl)cc2)cc1OC (mixture of isomers) has fold change of Cadaverine concentration at least equal to 1.
False

I'd appreciate it if you could say whether CSc1nnc(C(C)(C)C)c(=O)n1N has fold change of Cadaverine concentration at least equal to 1.
False

I'd appreciate it if you could say whether O=c1[nH]c2ccccc2n1C1CCN(CCCC(c2ccc(F)cc2)c2ccc(F)cc2)CC1 [Pimozide] has fold change of Cadaverine concentration at least equal to 1.
False

I'd appreciate it if you could say whether CN1[C@@H]2C[C@@H](OC(=O)[C@H](CO)c3ccccc3)C[C@H]1[C@@H]1O[C@@H]12 [Scopolamine hydrochloride] has fold change of Cadaverine concentration at least equal to 1.
False

I'd appreciate it if you could say whether N#Cc1nn(-c2c(Cl)cc(C(F)(F)F)cc2Cl)c(N)c1[S+]([O-])C(F)(F)F (centres undefined) has fold change of Cadaverine concentration at least equal to 1.
False

I'd appreciate it if you could say whether C[N+](C)(C)CCCCCCCCCC[N+](C)(C)C [Decamethonium bromide] has fold change of Cadaverine concentration at least equal to 1.
False

====

Measured fold change of Putrescine concentration of individual entries
Test system: Escherichia coli IAI1
MEASUREMENT_DESCRIPTION: fold change of Putrescine concentration vs plate DMSO controls (fold change (ratio)); higher = more amine produced, active = hit call of the paper (significant change in both replicates, either direction)
CONDITION_SET: 20 µM; incubation time: 27 h, anaerobic, 37 °C
Structures can show the parent of a compound that is named as a salt.
The reply should be a number, written without any unit.

Consider the worked cases shown below.
1. CC(C)(C)C(O)C(Oc1ccc(Cl)cc1)n1cncn1 (configuration not stated): 1.08
2. CCc1nn(C)c(C(=O)NCc2ccc(Oc3ccc(C)cc3)cc2)c1Cl: 0.947
3. OC(c1ccccc1)(c1ccccc1)C1CCNCC1 [Azacyclonol]: 1.02
4. CC(O)(CS(=O)(=O)c1ccc(F)cc1)C(=O)Nc1ccc(C#N)c(C(F)(F)F)c1 (configuration not stated) [Bicalutamide]: 1.08
5. CCN(C(C)=O)c1cccc(-c2ccnc3c(C#N)cnn23)c1 [Zaleplon]: 1.03

Read off the recorded fold change of Putrescine concentration for CC(C)N(CCC(C(N)=O)(c1ccccc1)c1ccccn1)C(C)C (configuration not stated) [Disopyramide]
1.06

Read off the recorded fold change of Putrescine concentration for C[C@@H]1[C@@H](c2ccc(Cl)cc2)SC(=O)N1C(=O)NC1CCCCC1
0.955

Read off the recorded fold change of Putrescine concentration for c1ccc2c(c1)OCC(C1=NCCN1)O2 (configuration not stated) [Idazoxan hydrochloride]
1.1

Read off the recorded fold change of Putrescine concentration for COC(=O)Nc1nc2ccccc2[nH]1
0.997

Read off the recorded fold change of Putrescine concentration for COc1ccc(CN2CCNCC2)c(OC)c1OC [Trimetazidine dihydrochloride]
0.973

Read off the recorded fold change of Putrescine concentration for CNC(C)(C)Cc1ccccc1 [Mephentermine hemisulfate]
1.03

Read off the recorded fold change of Putrescine concentration for COc1cc(OC)nc(NC(=O)NS(=O)(=O)c2ncccc2C(=O)N(C)C)n1
0.924

Read off the recorded fold change of Putrescine concentration for CC(C)c1cccc(C(C)C)c1O [Propofol]
0.865

Read off the recorded fold change of Putrescine concentration for CCCC[N+]1(C)[C@@H]2C[C@@H](OC(=O)[C@H](CO)c3ccccc3)C[C@H]1[C@@H]1O[C@@H]12 (some centres not stated) [N-Butylscopolammonium bromide]
1.27

Read off the recorded fold change of Putrescine concentration for CC(Cc1ccccc1)NCCC(c1ccccc1)c1ccccc1 (configuration not stated) [Prenylamine lactate]
1.37

Read off the recorded fold change of Putrescine concentration for Oc1ccc2c3c1O[C@H]1[C@@H](O)CC[C@@]4(O)[C@@H](C2)N(CC2CCC2)CC[C@]314 [Nalbuphine hydrochloride]
1.04

Read off the recorded fold change of Putrescine concentration for CC(=O)OC1CN2CCC1CC2 (configuration not stated) [Aceclidine hydrochloride]
1.02
